Data provenance: patent US12729194B2

Test system: envelope glycoproteins of the amphotropic murine leukemia virus (AMLV)
Assay: microbe, parasite or virus in culture
Assay type: cell-based
Conditions: Cf2Th-CD4/CCR5 target cells, 48 hours, luciferase, specificity control, read-out: 50% inhibitory concentration (IC50), AMLV
Would you kindly list IC50 for each of these compounds?

Record excerpt, results attached:
                                   compound  measure_name    result
0  COc1ccnc2[nH]cc(C(=O)C(=O)N3CCN(C(=O)c4ccccc4)C[C@H]3C)c12 [BMS-806, reference compound]          IC50  > 100 nM
1  COc1ccc(-c2ccc(CNC(=O)c3ccc(C4(C(F)(F)F)N=N4)cc3)o2)c2[nH]cc(C(=O)C(=O)N3CCN(C(=O)c4ccccc4)CC3)c12          IC50  > 100 nM
2  O=C(Nc1cccc2c(C(=O)C(=O)N3CCN(C(=O)c4ccccc4)CC3)c[nH]c12)c1ccccc1          IC50  > 100 nM
3  O=C(Nc1cccc2c(C(=O)C(=O)N3CCN(C(=O)c4ccccc4)CC3)c[nH]c12)c1ccc(C2(C(F)(F)F)N=N2)cc1          IC50  > 100 nM
4  COc1ccc(-c2ccc(CNC(=O)c3c(F)c(F)c(N=[N+]=[N-])c(F)c3F)o2)c2[nH]cc(C(=O)C(=O)N3CCN(C(=O)c4ccccc4)CC3)c12          IC50  > 100 nM

Which IC50 value is on record for COc1ccc(-c2ccc(CNC(=O)c3ccccc3)o2)c2[nH]cc(C(=O)C(=O)N3CCN(C(=O)c4ccccc4)CC3)c12 ?
> 100 nM
